The reported measurements were obtained from PubChem BioAssay.

Reported composite z-score by item:
Protocol summary: probe aLAP1 signal on lysate-treated microarray – cell lysate, small-molecule microarray, COS7 lysate, primary screen (AID 1124);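 note: lysate comes from COS7 cells expressing LAP1 and is applied at 0.3 µg/mL; score merges spot fluorescence near 667 nm with signal-to-noise over triplicate slides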
Measurement conditions: probe aLAP1, fluorescence, higher = more signal
Just the number, please, no unit attached.

Solved cases below.
[
  {
    "Smi": "CN(C)CCCC[C@@H]1NC(=O)[C@@H]2C[C@H](C(=O)NCCCCCN)[C@H](c3cccc(OCCO)c3)N2C1=O",
    "composite z-score": 1.27
  },
  {
    "Smi": "COC(=O)[C@@]1(Cc2ccccc2)[C@H]2c3cc(C(=O)N4CCCC4)n(Cc4ccc(OC)c(OC)c4)c3C[C@H]2CN1C(=O)c1ccccc1",
    "composite z-score": 0.382
  }
]

Here is the next item to consider.
Query: composite z-score; subject: [N-]=[N+]=Nc1ccccc1[C@@H]1OC(c2ccc(OCCCO)cc2)=N[C@]1(Cc1ccccc1)C(=O)NCCN1CCOCC1
0.946
